Origin of measurements: patent US5885987A

molecular target: isolated guinea pig ileum (histamine) (Cavia porcellus); construct: An isolated guinea pig ileum was cut into about 2 cm lengths; from tissue; host or cells: isolated guinea pig ileum; experiment: Antihistaminic action (in vitro), inhibition of histamine-induced contraction of isolated ileum; assay type: cell-based; conditions: isolated guinea pig ileum, histamine; 30 min
Sequence (P31389 whole entry): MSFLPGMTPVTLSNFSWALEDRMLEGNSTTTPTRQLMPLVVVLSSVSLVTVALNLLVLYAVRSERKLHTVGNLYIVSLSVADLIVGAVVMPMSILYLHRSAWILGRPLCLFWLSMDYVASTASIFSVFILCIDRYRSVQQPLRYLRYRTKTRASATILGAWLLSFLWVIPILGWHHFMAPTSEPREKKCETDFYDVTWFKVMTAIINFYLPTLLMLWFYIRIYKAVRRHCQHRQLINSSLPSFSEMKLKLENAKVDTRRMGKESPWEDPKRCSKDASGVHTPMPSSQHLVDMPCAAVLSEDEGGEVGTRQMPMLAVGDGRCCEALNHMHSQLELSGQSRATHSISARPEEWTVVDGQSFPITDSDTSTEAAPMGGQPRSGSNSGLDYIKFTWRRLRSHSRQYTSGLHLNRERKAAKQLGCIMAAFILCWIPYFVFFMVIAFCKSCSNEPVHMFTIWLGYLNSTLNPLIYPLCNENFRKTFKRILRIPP
Known pD'2 (antihistaminic action) of a selection of molecules
measuredAttribute: pD'2 (antihistaminic action)

                                inputsmiles  value
0  CN(Cc1cccc(OCc2ccc3ccccc3n2)c1)c1ccc2c(c1)SCC(=O)N2C   6.17
1  Cc1ccc(OCc2ccc(OCc3nc4ccccc4n3C)cc2)c2c1NC(=O)C2(C)C   6.42
2  O=C1CCCc2cc(OCc3cccc(OCc4ccc5ccccc5n4)c3)ccc21   5.09
3  CC1(C)C(=O)Nc2c(OCc3cccc(OCc4ccc5ccccc5n4)c3)cccc21   5.35
4  O=C1CSc2cc(OCc3cccc(OCc4ncc5ccccc5n4)c3)ccc2N1   5.25
